The measurements presented in this section are drawn from patent US20240209086A1.

target: canine CD3 on canine T cells (canine PBMC) (canine, UniProt P27597 22-202); experiment: cell-based or functional assay
Sequence (P27597 22-202 limits assumed, chain 1 of 3): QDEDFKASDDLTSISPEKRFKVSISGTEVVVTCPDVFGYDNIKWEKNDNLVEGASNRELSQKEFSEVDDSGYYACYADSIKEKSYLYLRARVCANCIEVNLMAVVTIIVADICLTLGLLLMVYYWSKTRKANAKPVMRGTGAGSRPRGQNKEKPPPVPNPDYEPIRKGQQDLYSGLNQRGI
Sequence (chain, as listed by the source limits assumed, chain 2 of 3): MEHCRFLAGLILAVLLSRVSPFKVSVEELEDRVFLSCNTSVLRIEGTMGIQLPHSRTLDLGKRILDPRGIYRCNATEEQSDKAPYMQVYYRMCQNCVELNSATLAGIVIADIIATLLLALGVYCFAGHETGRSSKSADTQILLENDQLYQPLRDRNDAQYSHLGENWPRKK
Sequence (chain, as listed by the source limits assumed, chain 3 of 3): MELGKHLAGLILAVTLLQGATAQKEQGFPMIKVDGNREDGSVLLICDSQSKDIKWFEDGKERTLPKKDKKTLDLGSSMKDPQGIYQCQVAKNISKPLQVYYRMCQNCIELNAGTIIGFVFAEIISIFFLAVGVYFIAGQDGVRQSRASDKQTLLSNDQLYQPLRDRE
Recorded CD25 Activation, Day 9, PB, one value per entry.

Req: Please list CD25 Activation, Day 9, PB recorded for the binder PMX177 (monospecific anti-canine CD3, canine IgG-B effector function deficient Fc) (antibody, V domains shown) VH: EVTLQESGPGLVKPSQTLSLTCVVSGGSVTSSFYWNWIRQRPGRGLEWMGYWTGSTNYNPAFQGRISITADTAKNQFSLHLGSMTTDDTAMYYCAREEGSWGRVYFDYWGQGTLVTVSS VL: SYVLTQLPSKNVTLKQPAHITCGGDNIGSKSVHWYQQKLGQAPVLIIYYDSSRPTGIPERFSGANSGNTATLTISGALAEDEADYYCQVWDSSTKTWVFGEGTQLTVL
Resp: 18.4

Req: Return reported CD25 Activation, Day 9, PB. Input binder: PMX192 (monospecific anti-canine CD3, canine IgG-B effector function deficient Fc) (antibody, V domains shown) VH: EVQLVESGGDLVKPAGSLRLSCVASGFTFSDYSMSWVRQAPEKGLQLVAGINGDGSTTYYTDAVKGRFTISRDNAKNTVYLQMNSLRAEDTAMYYCAKGAGTGDFWGQGTLVTVSS VL: SYELTQPPSVNVTLRETAHITCGGASIGRKYVQWIQQIPGQAPVVIIYKDSNRPTGIPERFSGANSGNTATLTISGALAEDEADYYCQVGDSGAWVFGEGTQLTVL
Resp: 11.3

Req: Look up and report measured CD25 Activation, Day 9, PB for this entry: PMX200 (monospecific anti-canine CD3, canine IgG-B effector function deficient Fc) (antibody, V domains shown) VH: ELTLQESGPGLVKPSQTLSLTCIVSGGSVTSSYYWNWIRQSPGRGLEWMGYWTGNTNYNPALQGRIFITADTAKNQFSLQLRSMTTEDTAVYYCARGGYGYHYGMDYWGHGTSVFVSS VL: SYVLTQLPSKSVALKQPAHITCGGDNIGSKRVHWYQQKLGQAPALIISFDNSRPTGIPERFSGANSGNTATLTISGALAEDEADYYCQVWDSTAKASIFGGGTHLTVL
Resp: 15

Req: Please supply the value of reported CD25 Activation, Day 9, PB for the item PMX194 (monospecific anti-canine CD3, canine IgG-B effector function deficient Fc) (antibody, V domains shown) VH: EVQLVESGGDLVKPGGSLRLSCVASGFTFSNYHMSWVRQAPGKGLQWVAYSNSGRMSTDYADAVKGRFTISRDNAKNTLYLQMNSLRPEDTAVYYCATVIYGLFDYWGQGTLVTVSS VL: DIVMTQTPLSLSVSPGEPASISCKASQSLLYSNGNTYLYWFRQKPGQSPQRLIYKVSKRDSGVPDRFSGSGSGTDFTLRIRRVEADDAGVYYCGQGTQDPYTFSQGTKLEIK
Resp: 17.1

Req: Please list CD25 Activation, Day 9, PB recorded for the binder PMX179 (monospecific anti-canine CD3, canine IgG-B effector function deficient Fc) (antibody, V domains shown) VH: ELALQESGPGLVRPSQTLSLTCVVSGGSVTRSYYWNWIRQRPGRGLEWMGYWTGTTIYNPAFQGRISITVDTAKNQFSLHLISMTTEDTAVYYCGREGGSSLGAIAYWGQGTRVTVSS VL: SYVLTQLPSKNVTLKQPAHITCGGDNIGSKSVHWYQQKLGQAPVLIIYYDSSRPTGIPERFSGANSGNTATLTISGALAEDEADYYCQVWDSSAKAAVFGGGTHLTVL
Resp: 22.9

Req: Supply CD25 Activation, Day 9, PB value. Item: PMX195 (monospecific anti-canine CD3, canine IgG-B effector function deficient Fc) (antibody, V domains shown) VH: EVQLVESGGDLVKPAGSLRLSCMASGFTFSSYSMSWVRQAPEKGLQLVAGINGDGSTTYYTDAVKGRFTISRDNAKNTVYLQMNNLRVEDSAMYYCAKGAGTGDYWGQGTLVTVSS VL: SYELTQPPSLNVTLRETAHITCGGDRIGSRYVQWIQQNPGQAPVVVIYKDSNRPTGIPERFSGANSGNTATLTISGALAEDEADYYCQVGDSGNWVFGGGTQLTVL
Resp: 14.7
